Numbers sourced from patent US11759509B2.

test: physchem; conditions: pH 7.4
PROPERTY MEASURED: solubility thermodynamic at 90 min

What the record says about CSCC[C@H](NC(=O)[C@@H](N)CCCNC(=N)N)C(=O)N[C@@H](Cc1ccccc1)C(=O)N1CCC[C@H]1C(=O)N[C@@H](CC(N)=O)C(=O)N[C@@H](C)C(=O)N1CCC[C@H]1C(=O)N[C@@H](Cc1ccc(O)cc1)C(=O)N[C@@H](CC(C)C)C(=O)O : solubility thermodynamic at 90 min is > 1000 µg/mL

---

test: Measurement of solubility in isotonic buffer (pH 6.0 and 7.4); conditions: isotonic disodium hydrogen phosphate/citric acid buffer, pH 6
No end group written: not given here.
PROPERTY MEASURED: solubility at 90 min

What the record says about CYTWNQMNL [SEQ ID NO: 4] : solubility at 90 min is 106 µg/mL

---

test: Measurement of solubility in isotonic buffer (pH 6.0 and 7.4); conditions: isotonic disodium hydrogen phosphate/citric acid buffer, pH 7.4
No end group written: not given here.
PROPERTY MEASURED: solubility thermodynamic at 90 min (µg/mL)
Expressed in µg/mL, but write only the number.

What the record says about CYTWNQMNL [SEQ ID NO: 4] : solubility thermodynamic at 90 min is 167

---

# solubility thermodynamic at 90 min per entry
experiment: physchem; details: pH 7.4
No end group written: not given here.
Expressed in mg/mL, but write only the number.

residue_string="CNKRYFKLSHLQMHSRKH [SEQ ID NO: 23]" unit_info=mg/mL obs_value=0.712
residue_string="CNKRYFKLSHLQMHSRKHTG [SEQ ID NO: 24]" unit_info=mg/mL obs_value=0.556

What the record says about CNKRYFKLSHLQMHSRK [SEQ ID NO: 22] : solubility thermodynamic at 90 min is 0.931
